# credit: paper PMC10397247

MEASURED ON: T1, 4H745-AA
T1 chain: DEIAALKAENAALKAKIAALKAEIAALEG
EXPERIMENTAL PROTOCOL: two-hybrid library CCmax;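 further: natural log of median RNA to DNA barcode read ratio; higher means stronger binding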
PARTICULARS: mean of both orientations
Each item that follows carries a reported interaction score.

BINDER: DKIAALKAKIAALEAKNAALEAEIAALEG [4H2865-AA]
interaction score: 0.436
//
BINDER: DENAALKAEIAALKAENAALKAEIAALKG [4H1626-AA]
interaction score: -1.25
//
BINDER: DKIAALKAENAALEAEIAALKAEIAALKG [4H2698-AA]
interaction score: 2.2
//
BINDER: DEIAALKAENAALKAEIAALEAKIAALKG [4H710-AA]
interaction score: 1.86
//
BINDER: DKNAALKAEIAALKAKNAALEAEIAALEG [4H3697-AA]
interaction score: -1.64
//
BINDER: DKNAALEAKIAALKAEIAALEAENAALEG [4H3395-AA]
interaction score: -1.46
//
BINDER: DENAALEAKIAALEAENAALKAKIAALKG [4H1310-AA]
interaction score: -1.11
